% Inhibition by entry:
System: P. falciparum stage V gametocytes
Design: BacTiter-Glo ATP luminescence viability of purified stage V gametocytes in 384-well plates, per cent inhibition versus DMSO
Conditions: 48 h, 5 µM; inhibitor
Among all 13,000 compounds or so, about 3,200 (25%) showed an effect of 50% or more. Some of the results follow.
measure_name: % Inhibition

INSERT INTO results (compound, measure_name, val) VALUES
  ('COc1cccc(-c2ccc3c(-c4ccc(F)cc4)cnc(N)c3c2)c1', '% Inhibition', '40.73%'),
  ('O=C(/C=C/c1ccc(Cl)c(Cl)c1)NCCCCCN1CCCN(C(=O)Nc2ccc(OC(F)F)cc2)CC1', '% Inhibition', '-55.78%'),
  ('CS(=O)(=O)N(c1ccc(F)cc1)c1cc(C(=O)N[C@@H](Cc2ccccc2)[C@H](O)CNCc2cccc(C(F)(F)F)c2)cc(N2CCCC2=O)c1', '% Inhibition', '-15.57%'),
  ('CS(=O)(=O)Nc1ccc(-c2ccc3ccnc(N)c3c2)cc1', '% Inhibition', '43.95%'),
  ('O=S(=O)(NCCN1CCCC1)c1ccc(-c2cccc(CNC3Cc4ccccc4C3)c2)cc1', '% Inhibition', '70.89%'),
  ('CO/N=C(\C)c1ccc2c(c1)CCN(CCC1CCC(NC(=O)/C=C/c3ccc(F)cc3)CC1)CC2 (stereo not shown)', '% Inhibition', '-74.19%'),
  ('CCc1c[nH]c2c(N(c3ccccc3)S(C)(=O)=O)cc(C(=O)N[C@@H](Cc3ccccc3)[C@H](O)CNCc3cccc(C(F)(F)F)c3)cc12', '% Inhibition', '91.8%'),
  ('O=C1Nc2cccc3c2C1(CCCN1CCC(c2c[nH]c4cc(C(F)(F)F)ccc24)CC1)CCC3 (stereo not shown)', '% Inhibition', '106.4%'),
  ('CN(C)CC(=O)Nc1ccc(-c2ccc3ccnc(N)c3c2)cc1', '% Inhibition', '67.97%'),
  ('N#Cc1ccc(CN2CCC(Oc3ccc(NC(=O)c4ccccc4)cc3Cl)CC2)cc1', '% Inhibition', '11.07%'),
  ('CCc1c[nH]c2c(N(c3ccccc3)S(C)(=O)=O)cc(C(=O)N[C@@H](Cc3ccccc3)[C@H](O)CNC(C)(C)CCCC(C)C)cc12', '% Inhibition', '124.7%'),
  ('Cn1nc(-c2cccc(CNC3CCc4ccccc43)c2)c2cnc(NC3CCCC3)nc21 (stereo not shown)', '% Inhibition', '-10.51%'),
  ('Cc1cc(OCc2ccncc2)cc2c1C(=O)CC(C)(C)O2', '% Inhibition', '21.7%'),
  ('O=C(Nc1ccc(-c2nc3ccccc3[nH]2)cc1)c1cccc(S(=O)(=O)N2CCCC2)c1', '% Inhibition', '-9.526%'),
  ('c1cc(CN2CCc3ccccc3CC2)cc(-c2c[nH]c3nc(NC4CCCC4)ncc23)c1', '% Inhibition', '-80.37%'),
  ('CC(C)(C)C(=O)Nc1ccc(C(=O)Nc2cccc(-c3nc4ccccc4[nH]3)c2)cc1', '% Inhibition', '-0.3051%'),
  ('COc1ccc(Nc2nc(NCc3ccc(-n4ccnc4)cc3)cc(-c3ccc(OC)cc3)n2)cc1', '% Inhibition', '-3.76%'),
  ('COc1ccc2nccc([C@@H](O)CN3CCC(NCc4cc5cc(C)ccc5s4)CC3)c2c1', '% Inhibition', '12.73%'),
  ('CC(C)(C)OC(=O)n1cc(C2CCN(CCCC34CCCc5cccc(c53)NC4=O)CC2)c2ccncc21 (stereo not shown)', '% Inhibition', '2.693%'),
  ('Cc1ccc(S(=O)(=O)n2cc(-c3ccnc(N)c3)c3cc(Br)cnc32)cc1', '% Inhibition', '-5.282%'),
  ('O=C(Nc1cccc(CN2CCCN(Cc3ccc4c(c3)OCO4)CC2)c1)c1ccc2ccccc2c1', '% Inhibition', '-18.83%'),
  ('O=C1OC2(CN1CC1CCN(Cc3ccc(O)c(Cl)c3)CC1)c1ccccc1-c1ccccc12', '% Inhibition', '20.11%'),
  ('CC(C)(CNC(=O)C1CCN(CCOCc2ccccc2)CC1)c1nc(-c2ccc(Cl)c(O)c2)c(-c2ccncc2)[nH]1', '% Inhibition', '-51.1%'),
  ('Nc1nccc2ccc(-c3cccc(OCc4ccccc4)c3)cc12', '% Inhibition', '24.46%'),
  ('CC(C)CNC(=O)c1ccnc(-c2ccc(CNCCCc3ccccc3)cc2)c1', '% Inhibition', '-3.007%'),
  ('CC[C@H](C)CNC(=O)c1cncc(-c2ccc(CNCCCc3ccccc3)cc2)c1', '% Inhibition', '-1.463%'),
  ('O=C(NCCCN1CCOCC1)c1ccc(-c2cccc(NC(=O)c3ccc(Cl)c(Cl)c3)c2)cc1', '% Inhibition', '-20.47%'),
  ('Cn1nc(-c2cccc(CN[C@@H]3CCc4ccc(O)cc43)c2)c2cnc(NCCCN3CCCC3)nc21', '% Inhibition', '59.7%'),
  ('O=C1Nc2cccc3c2C1(CCCCCN1CC=C(c2c[nH]c4ccccc24)CC1)CCC3 (stereo not shown)', '% Inhibition', '20.32%'),
  ('CN(C)Cc1cccc(-c2ccc3ccnc(N)c3c2)c1', '% Inhibition', '100.3%'),
  ('CC1(C)OC[C@]2(C)[C@@H](CC[C@]3(C)C4=CC(=O)CCC4CC[C@@H]23)O1 (stereo partly shown)', '% Inhibition', '35.88%');
